# Tested on: MCF10A
# assay notes: 5+ nucleoli phenotype percent effect (relative to siNT 0% and siKIF11 100%); higher = more cells with five or more nucleoli
# condition notes: 20 nM; 72 h
Provide the recorded 5+ nucleoli phenotype percent effect for the entries that follow.
Numbers only, in %.

For orientation, consider the following solved cases.
# primary sequence, 5+ nucleoli phenotype percent effect / %
measured = [
    ("UGCCCCACCUGCUGACCACCCUC [hsa-miR-4758-3p]", 31.8),
    ("CAGGGAAAUGGGAAGAACUAGA [hsa-miR-5584-5p]", 34.8),
    ("AUAAAGCUAGAUAACCGAAAGU [hsa-miR-9-3p]", -46.1),
    ("GGGGCGCGGCCGGAUCG [hsa-miR-3178]", 51.5),
    ("AGCUCUAGAAAGAUUGUUGACC [hsa-miR-6502-5p]", 66.5),
]

Quick request: 5+ nucleoli phenotype percent effect for each listed item, please.
1. UCCUACGCUGCUCUCUCACUCC [hsa-miR-6761-3p]
2. UGAGGGAGUUGGGUGUAUA [hsa-miR-6129]
3. GUGCAAAAGUCAUCACGGUU [hsa-miR-548aw]

**Result**
14.2
-7.69
-29.9

====

# System: MCF10A
# assay notes: one-nucleolus phenotype percent effect, hitpick validation (relative to siNT 0% and siNOL11 100%); higher = more cells with one nucleolus
# condition notes: 20 nM; 72 h
result type: one-nucleolus phenotype percent effect (%)
Numbers only, in %.

Worked examples follow.
# primary sequence, unit spec, one-nucleolus phenotype percent effect
measured = [
    ("ACCUUGGCUCUAGACUGCUUACU [hsa-miR-212-5p]", "%", -36.9),
    ("AGGUAUUGCCACCCUUUCUAGU [hsa-miR-5681b]", "%", 133),
    ("CUAGGGGGUUUGCCCUUG [hsa-miR-4278]", "%", 151),
]

Provide one-nucleolus phenotype percent effect values for the following items, in order.
1. AAGCAGCUGCCUCUGAGGC [hsa-miR-646]
2. CGGCGGGGACGGCGAUUGGUC [hsa-miR-1908-5p]
3. UCUCCCUUGAGGGCACUUU [hsa-miR-4287]
4. AAAAGGCAUUGUGGUUUUUG [hsa-miR-548an]
5. CCCCACCUCCUCUCUCCUCAG [hsa-miR-1224-3p]
6. CCGUCGCCGCCACCCGAGCCG [hsa-miR-1181]

**Result**
[152, 128, -44.9, 194, -32.5, -55.6]

Give one-nucleolus phenotype percent effect for all sequences that follow.
1. AGAGCAGAAGGAUGAGAU [hsa-miR-4468]
2. CAAUCAGCAAGUAUACUGCCCU [hsa-miR-34a-3p]
3. AGGCGGAGACUUGGGCAAUUG [hsa-miR-25-5p]

**Result**
109
127
182

====

# Test system: MCF10A
# assay notes: 5+ nucleoli phenotype percent effect, hitpick validation (relative to siNT 0% and siKIF11 100%); higher = more cells with five or more nucleoli
# condition notes: 20 nM; 72 h
result type: 5+ nucleoli phenotype percent effect (%)
Numbers only, in %.

Some sequences with recorded 5+ nucleoli phenotype percent effect:
# primary sequence, unit spec, 5+ nucleoli phenotype percent effect
records = [
    ("GAGCAAUGUAGGUAGACUGUUU [hsa-miR-3908]", "%", -5.96),
    ("AGGUAUUGCCACCCUUUCUAGU [hsa-miR-5681b]", "%", -3.11),
    ("UGUCCUCUAGGGCCUGCAGUCU [hsa-miR-3909]", "%", -15.4),
]

Count: 2. Required value per item: 5+ nucleoli phenotype percent effect.
1. UCUCCCUUGAGGGCACUUU [hsa-miR-4287]
2. ACUGGGGAGCAGAAGGAGAACC [hsa-miR-4667-5p]

**Result**
1: 70; 2: 9.27

**Query** Recorded 5+ nucleoli phenotype percent effect for CAGCCUCUGCCCUUGGCCUCC [hsa-miR-6877-3p] , please?
**Result** -16.2

====

# System: MCF10A
# assay notes: one-nucleolus phenotype percent effect (relative to siNT 0% and siNOL11 100%); higher = more cells with one nucleolus (ribosome biogenesis inhibition)
# condition notes: 20 nM; 72 h
For each entry below, report its one-nucleolus phenotype percent effect value.
Answers are plain numbers, in %.

# primary sequence, test system, unit spec, one-nucleolus phenotype percent effect
records = [
    ("AACCCCUAAGGCAACUGGAUGG [hsa-miR-5195-5p]", "MCF10A", "%", -2.47),
]

Give measured one-nucleolus phenotype percent effect for every item shown.
1. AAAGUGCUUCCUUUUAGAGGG [hsa-miR-520b]
2. UGCCUCCUCCGUGGCCUCAG [hsa-miR-6829-3p]
3. AAGCGACCAUGAUGUAACUUCA [hsa-miR-4670-5p]
4. CUGUACAGGCCACUGCCUUGC [hsa-let-7g-3p]
5. AAAGACAUAGUUGCAAGAUGGG [hsa-miR-3617-5p]

**Result**
-19.2
0.866
14
-2.69
-28.6

====

I'd be grateful if you could share measured percent viability for these entries.
# Test system: MCF10A
# assay notes: percent viability (nuclei count relative to siNT); higher = more viable cells
# condition notes: 20 nM; 72 h
Numbers only, in %.

# primary sequence, percent viability, %
records = [
    ("UCUCUGGGCCUGUGUCUUAGGC [hsa-miR-330-5p]", 17.8),
    ("CACCCAGAUCUGCGGCCUAAU [hsa-miR-1295b-5p]", 29.9),
    ("AAGAGGAAGAAAUGGCUGGUUCUCAG [hsa-miR-3916]", 14),
    ("CAAGAACCUCAGUUGCUUUUGU [hsa-miR-548b-3p]", 83.5),
    ("AUUGACACCUCUGUGAGUGGA [hsa-miR-514b-3p]", 32.6),
    ("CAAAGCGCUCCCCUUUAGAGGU [hsa-miR-518b]", 27.8),
    ("UGCAAAAGUAAUUGCAGUUUUUG [hsa-miR-548x-5p]", 63),
    ("CUGUUGCCACUAACCUCAACCU [hsa-miR-744-3p]", 56),
    ("AGUUGCCAGGGCUGCCUUUGGU [hsa-miR-6501-5p]", 47.2),
    ("UCACUCUCACCUUGCUUUGC [hsa-miR-4639-3p]", 63),
]

Hello, I would appreciate it if you could give percent viability for each entry below.
1. GGAGGCGCAGGCUCGGAAAGGCG [hsa-miR-3197]
2. UGUCUCUCGCCCUUGGCCUUAG [hsa-miR-6895-3p]
3. AUUAGGUAGUGGCAGUGGAAC [hsa-miR-6509-5p]
4. UGUGACCCUAGAAUAAUUAC [hsa-miR-7973]
5. GUGGGUUGGGGCGGGCUCUG [hsa-miR-3940-5p]
6. CCUCCCAUGCCAAGAACUCCC [hsa-miR-2116-3p]
7. AGGCGAUGUGGGGAUGUAGAGA [hsa-miR-6717-5p]

**Result**
1. 41.9
2. 19.4
3. 55.7
4. 29.4
5. 52.7
6. 95.6
7. 30.5

Batch request: percent viability for each of the following sequences.
1. ACCCUAUCAAUAUUGUCUCUGC [hsa-miR-454-5p]
2. AACUGUUUGCAGAGGAAACUGA [hsa-miR-452-5p]
3. GGCGACAAAACGAGACCCUGUC [hsa-miR-1273c]
4. AUGGUACCCUGGCAUACUGAGU [hsa-miR-1263]
5. GCUGGGCGAGGCUGGCA [hsa-miR-4486]
6. CCUCUGAAAUUCAGUUCUUCAG [hsa-miR-146a-3p]
7. UAGGCAGUGUAUUGCUAGCGGCUGU [hsa-miR-449c-5p]

**Result**
81.2
103
17.4
24.8
38.6
125
17.7

====

# Tested on: MCF10A
# assay notes: 5+ nucleoli phenotype percent effect (relative to siNT 0% and siKIF11 100%); higher = more cells with five or more nucleoli
# condition notes: 20 nM; 72 h
result type: 5+ nucleoli phenotype percent effect (%)
Numbers only, in %.

# primary sequence, test system, unit spec, 5+ nucleoli phenotype percent effect
rows = [
    ("UGGGGAUUUGGAGAAGUGGUGA [hsa-miR-4450]", "MCF10A", "%", 3.63),
    ("AGGCCUCUGUGACGUCACGGUGU [hsa-miR-4757-5p]", "MCF10A", "%", 66.8),
    ("UAGUUCUUCCCUUUGCCCAAUU [hsa-miR-5584-3p]", "MCF10A", "%", -41),
    ("UGGCUUCUCUUGCACACCCAG [hsa-miR-6815-3p]", "MCF10A", "%", -12.3),
    ("CUUUGCUUCCUGCUCCCCUAG [hsa-miR-6885-3p]", "MCF10A", "%", -17.3),
]

Consider the record given below.
**Query** Record lookup: for MCF10A, what 5+ nucleoli phenotype percent effect belongs to CGGCCCCACGCACCAGGGUAAGA [hsa-miR-874-5p] ?
**Result** 38.1
